Recorded values, source patent US20240150440A1.

Target: recombinant SARS-CoV-2 RBD with C-terminal AviTag (SARS-CoV-2, UniProt P0DTC2 319-541)
Experiment: ELISA, competition with coated ACE2-Fc for RBD
REPORTED METRIC: pIC50
Keep it numeric: pIC50 is minus log10 of the concentration in mol/L.

PP1131 MBP-4B0F-PAPA-R2b-D5-H6 (VHH, Form: Heptamer) VHH: QVQLVESGGGLVQPGGSLRLSCAASGYADEINMVHWYRQAPGKGREFVAAIASGGSTFYADSVKGRFTISRDNAKNTVYLQMNSLKPEDTAVYYCAAIPRPSLSYAHDYAYWGQGTQVTVSS    7.84

// next item, pIC50 requested
# get_value(readout='pIC50', item= PP1177 MPB-scTRP-PAPA-R2a-F3-H6 (VHH, Form: Trimer) VHH: QVQLVESGGGLVQPGGSLRLSCAASGSITSINWMHWFRQAPGKDREGVASISQTGRGSYADSVKGRFTISRDNAKNTVYLQMNSLKPEDTAVYYCAAASRTGTPYNYWGQGTQVTVSS ) 7.08
